pIC50: −log10 of the molar value.
human pancreatic α-amylase (Homo sapiens): reported pIC50 for various molecules.
Sequence (P04746 16-511): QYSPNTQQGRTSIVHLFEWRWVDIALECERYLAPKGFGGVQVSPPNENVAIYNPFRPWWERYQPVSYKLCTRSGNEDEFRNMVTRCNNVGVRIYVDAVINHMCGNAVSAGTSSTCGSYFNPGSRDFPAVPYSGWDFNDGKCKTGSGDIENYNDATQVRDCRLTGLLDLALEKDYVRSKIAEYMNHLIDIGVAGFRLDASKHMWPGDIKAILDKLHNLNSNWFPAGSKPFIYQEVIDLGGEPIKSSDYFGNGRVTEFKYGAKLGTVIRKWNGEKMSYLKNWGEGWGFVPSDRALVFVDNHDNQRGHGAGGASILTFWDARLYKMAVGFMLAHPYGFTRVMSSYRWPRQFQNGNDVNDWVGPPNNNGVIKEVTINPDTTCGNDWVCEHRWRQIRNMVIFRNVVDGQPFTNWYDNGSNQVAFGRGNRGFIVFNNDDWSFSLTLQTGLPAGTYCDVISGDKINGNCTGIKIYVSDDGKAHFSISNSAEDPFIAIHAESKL
Endpoint: pIC50

# Structure string, System under test, Reported measurement
records = [
    ("CCNC(=S)N/N=C/c1cccc(C[C@@H]2C[C@H]3C(=O)N(C)[C@@]4(C[C@H](C)CC[C@H]4C(C)C)N3O2)c1O", "human pancreatic α-amylase (Homo sapiens)", 4.14),
    ("CC(C)[C@@H]1CC[C@@H](C)C[C@@]12N(C)C(=O)[C@@H]1C[C@@H](Cc3cccc(/C=N/NC(=S)Nc4ccccc4)c3O)ON12", "human pancreatic α-amylase (Homo sapiens)", 3.70),
    ("CC(C)[C@@H]1CC[C@@H](C)C[C@@]12N(C)C(=O)[C@@H]1C[C@@H](Cc3cccc(/C=N/NC(N)=O)c3O)ON12", "human pancreatic α-amylase (Homo sapiens)", 4.57),
    ("CC(C)[C@@H]1CC[C@@H](C)C[C@@]12N(C)C(=O)[C@@H]1C[C@@H](Cc3cccc(/C=N/NC(=S)N(C)C)c3O)ON12", "human pancreatic α-amylase (Homo sapiens)", 4.23),
    ("CC(C)[C@@H]1CC[C@@H](C)C[C@@]12N(C)C(=O)[C@@H]1C[C@@H](Cc3cccc(/C=N/NC(N)=S)c3O)ON12", "human pancreatic α-amylase (Homo sapiens)", 4.47),
    ("CNC(=S)N/N=C/c1cccc(C[C@@H]2C[C@H]3C(=O)N(C)[C@@]4(C[C@H](C)CC[C@H]4C(C)C)N3O2)c1O", "human pancreatic α-amylase (Homo sapiens)", 4.19),
    ("CC(C)[C@@H]1CC[C@@H](C)C[C@@]12N(C)C(=O)[C@@H]1C[C@@H](Cc3cccc(/C=N/NC(=O)Nc4ccccc4)c3O)ON12", "human pancreatic α-amylase (Homo sapiens)", 3.82),
]

---

System under test: α-amylase (Homo sapiens)
Sequence (P04746 16-511): as above
Endpoint: Ki (µM)

# Structure string, Unit text, Reported measurement
rows = [
    ("CC(C)[C@@H]1CC[C@@H](C)C[C@@]12N(C)C(=O)[C@@H]1C[C@@H](Cc3cccc(/C=N/NC(N)=O)c3O)ON12", "µM", 24.9),
]
